I'd appreciate it if you could supply Kd values for the items below.
# study.system: Recombinant truncated human his-tag ROR1 extracellular domain protein (UniProt Q01973 30-403)
# Sequence (Q01973 other isoform, or with tags, fused parts or gaps): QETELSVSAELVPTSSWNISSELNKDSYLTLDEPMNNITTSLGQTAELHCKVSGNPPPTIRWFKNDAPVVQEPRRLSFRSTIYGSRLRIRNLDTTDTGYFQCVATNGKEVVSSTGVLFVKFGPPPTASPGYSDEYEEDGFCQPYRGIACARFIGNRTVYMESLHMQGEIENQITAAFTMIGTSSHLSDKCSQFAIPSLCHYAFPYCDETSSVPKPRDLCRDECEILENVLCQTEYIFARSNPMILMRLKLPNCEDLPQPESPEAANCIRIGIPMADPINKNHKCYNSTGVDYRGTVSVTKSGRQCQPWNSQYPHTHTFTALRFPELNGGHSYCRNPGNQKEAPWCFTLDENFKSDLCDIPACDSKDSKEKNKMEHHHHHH
# experimental.protocol: SPR
Numbers only, in nM.

Some binders with recorded Kd:
>>> value("RO6D8-jlv1011 (antibody, V domains shown) VH: QVQLVQSGAEVKKPGASVKVSCKASGYTFTSKYYHWVRQAPGQGLEWMGIINPTSGSTSYAQKFQGRVTMTRDTSTSTVYMELSSLRSEDTAVYYCARDSSRYSGWYFDLWGQGTTVTVSS VL: AIQLTQSPSSLSASVGDRVTITCRASQGVSTEIAWYQQKPGKAPKLLIYAASSLQSGVPSRFSGSGSGTDFTLTISSLQPEDFATYYCQQYYGYPIAFGQGTRLEIK")
0.796
>>> value("RO6D8-s10 (antibody, V domains shown) VH: QVQLVQSGAEVKKPGASVKVSCKASGYTFTNYYMHWVRQAPGQGLEWMGIINPSGGSTSYAQKFQGRVTMTRDTSTSTVYMELSSLRSEDTAVYYCARSSRSSYYLWVLDLWGQGTTVTVSS VL: AIQMTQSPSSLSASVGDRVTITCRASQGVSTEIAWYQQKPGKAPKLLIYAASSLQSGVPSRFSGSGSGTDFTLTISSLQPEDFATYYCQQFNSYPITFGQGTRLEIK")
2.46
>>> value("RO6D8-011 (antibody, V domains shown) VH: QVQLVQSGAEVKKPGASVKVSCKASGYTFTNYYMHWVRQAPGQGLEWMGIINPTSGRTSYAQKFQGRVTMTRDTSTSTVYMELSSLRSEDTAVYYCARDSSSWYSGWYFDLWGQGTTVTVSS VL: AIQMTQSPSSLSASVGDRVTITCRASQGIRTDLAWYQQKPGKAPKLLIYAASSLQSGVPSRFSGSGSGTDFTLTISSLQPEDFATYYCQQYYGYPIAFGQGTRLEIK")
2.48

Query binder follows.
Give the reported Kd for this binder. RO6D8wt (antibody, V domains shown) VH: QVQLVQSGAEVKKPGASVKVSCKASGYTFTNYYMHWVRQAPGQGLEWMGIINPSGGSTSYAQKFQGRVTMTRDTSTSTVYMELSSLRSEDTAVYYCARDSSSWYSGWYFDLWGQGTTVTVSS VL: AIQMTQSPSSLSASVGDRVTITCRASQDVRAHLAWYQQKPGKAPKLLIYAASSLQSGVPSRFSGSGSGTDFTLTISSLQPEDFATYYCQQFNSYPITFGQGTRLEIK
118
